System: SN12C renal
Assay remarks: NCI tumour cell line growth inhibition, 48 h; in the data active = GI50 below about 0.43 µM; inactive = the rest
// allowed return values: active, inactive

Check out these entries, answers already filled in.
{"columns": ["Molecule", "Qualitative label"],
 "data": [
  ["O=c1c(I)c[nH]cc1I", "inactive"],
  ["Clc1ccc2c(NCCNc3nc(N4CCOCC4)nc4ccccc34)ccnc2c1", "inactive"],
  ["CCCN1C(=O)/C(=C/c2ccc(SC(F)(F)F)cc2)SC1=Nc1ccc(OC)cc1", "inactive"],
  ["[O]=[Sn]([CH]1CCCCC1)[CH]1CCCCC1", "active"],
  ["CCc1ccc2c(c1)C(=O)c1c-2n(CCCN)c(=O)c2cc(OC)c(OC)cc12", "inactive"]
]}

// outcome(item) with item = `CCCCCCCCCCCC/C=C\CC[C@@H](O)[C@H](O)CC[C@H](O)[C@@H]1CC[C@@H](CCCCCCCC2=C[C@H](C)OC2=O)O1`
inactive

// outcome(item) with item = CC[C@H](C)[C@H](NC(=O)C12C3C4C1C1C2C3C41NC)C(=O)N(C)[C@H](C[C@@H](OC(C)=O)c1nc(C(=O)N[C@@H](Cc2ccccc2)C[C@H](C)C(=O)OC)cs1)C(C)C (stereo partly drawn)
inactive

// outcome(item) with item = `CCCC(=O)Nc1cc(C(=O)N2C[C@H]3C[C@@]34C2=CC(=O)c2[nH]cc(C)c24)n(COC)c1`
active

// outcome(item) with item = `Cc1cc(N2CCC(N3CCCC3)CC2)nc(/N=C(\N)Nc2ccc(Cl)c(Cl)c2)n1`
inactive

// outcome(item) with item = `Clc1ccc(C=Nc2ccc(-c3nc4ccccc4[nH]3)cc2)cc1`
inactive

// outcome(item) with item = `[CH3][Sn]([CH3])([CH3])[S]C(=S)N1CCOCC1`
inactive

// outcome(item) with item = `CCSC[C@@H]1C[C@](O)(c2ccccc2)[C@@H](c2ccccc2)O1`
inactive

// outcome(item) with item = `CN(C)CCCN1c2ccccc2Sc2ccc(C(F)(F)F)cc21`
inactive

// outcome(item) with item = `O=C(Nc1cccc(-n2ccc3c(NC(=O)c4ccccc4)ncnc32)c1)Nc1ccc(Cl)c(C(F)(F)F)c1`
inactive

// outcome(item) with item = `COc1ccc2nc3ccccc3c(NCCNCCO)c2c1`
inactive

// outcome(item) with item = `COc1cc2c(c(OC)c1OC)-c1cc(I)c(O)cc1[C@@H](NC(C)=O)CC2`
active

// outcome(item) with item = `O=C(/C=C/c1ccc(O)c(O)c1)N1CCN(c2ccc(Cl)cc2)CC1`
inactive

// outcome(item) with item = `Nc1nc(SCc2ccccc2CCl)c2[nH]cnc2n1`
inactive

* * *

Test system: UO-31 renal
Assay remarks: NCI tumour cell line growth inhibition, 48 h
Let's look at some compounds and their measured TGI.
Numbers only; they are read as µM.

{"columns": ["Compound", "Quantity unit", "TGI"],
 "data": [
  ["CN1C2C=CC(=O)C1C1C(=O)N(c3ccccc3)C(=O)C12 (stereo unspecified)", "µM", 17.9]
]}

TGI reading for `Brc1ccc2[nH]c3c(C4=NCCC4)nccc3c2c1` : 37

TGI reading for `OCCc1ccsc1-c1sc(-c2cc(CCO)c(-c3sc(-c4cc(CCO)c(-c5sccc5CCO)s4)cc3CCO)s2)cc1CCO` : 2.7

TGI reading for `NC(=NCCCCCCN=C(N)/N=C(\N)Nc1ccc(Cl)cc1)/N=C(\N)Nc1ccc(Cl)cc1` : 11

TGI reading for `CCCN1C(=O)/C(=C/c2ccc(SC(F)(F)F)cc2)SC1=Nc1ccc(OC)cc1` : 17.1

TGI reading for `O=c1ccc(N=Nc2ccccc2)ccc1O` : 70.9

* * *

Let's look at some compounds and their measured TGI.
System: NCI-H522 lung
Assay remarks: NCI tumour cell line growth inhibition, 48 h

Before answering, review these 4 worked examples.
{"columns": ["Chemical structure", "Reported value"],
 "data": [
  ["O=c1c(-c2nc3ccccc3c3ccccc3c2=O)nc2ccccc2c2ccccc12", "> 100 µM"],
  ["[O]=[Sn]([CH]1CCCCC1)[CH]1CCCCC1", "0.217 µM"],
  ["CC(=O)O[C@H]1[C@@H](N2CCOCC2)C[C@H]2[C@@H]3CC=C4C[C@@H](N5CCCC5)CC[C@]4(C)[C@H]3CC[C@@]21C", "> 100 µM"],
  ["CC(C)c1ccc(O)c(Cc2cc(C(C)C)cc(Cc3cc(C(C)C)ccc3O)c2O)c1", "2.92 µM"]
]}

Measured TGI (NCI-H522 lung), entry `COc1cc(N=Nc2cc(Cc3ccc(N(C)C)cc3)c(N)cc2N(C)C)c2ncccc2c1` : 2.23 µM

* * *

System: HL-60(TB) leukemia
Assay remarks: NCI tumour cell line growth inhibition, 48 h; in the data active = GI50 below about 0.43 µM; inactive = the rest
// allowed return values: active, inactive

Check out these entries, answers already filled in.
{"columns": ["Compound", "Qualitative label"],
 "data": [
  ["O=c1c(I)c[nH]cc1I", "inactive"],
  ["C=CCC(N[C@@H](CO)c1ccccc1)c1ccc2ccccc2n1 (stereo partly specified)", "inactive"],
  ["NC(=NCCCCCCN=C(N)/N=C(\\N)Nc1ccc(Cl)cc1)/N=C(\\N)Nc1ccc(Cl)cc1", "inactive"],
  ["N[C@@H]1CCCN(c2c(Br)cnc3[nH]cc(NC(=O)C4CC4)c23)C1", "active"],
  ["CCc1ccc2c(c1)C(=O)c1c-2n(CCCN)c(=O)c2cc(OC)c(OC)cc12", "inactive"],
  ["COc1ccc(-c2nsc3c2NC(=O)CC3c2ccsc2)cc1 (stereo unspecified)", "active"],
  ["COc1cc(-c2nc(-c3ccccc3)c(-c3ccccc3)[nH]2)cc(OC)c1O", "inactive"],
  ["CCCN1C(=O)/C(=C/c2ccc(SC(F)(F)F)cc2)SC1=Nc1ccc(OC)cc1", "inactive"],
  ["Cn1c(=O)c(-c2ccccc2Cl)cc2cnc(NC3CCOCC3)nc21", "inactive"],
  ["CC(=O)ON(OCc1ccc2ccccc2c1)C(C)=O", "inactive"]
]}

Continue with the compound presented below.
// outcome(item) with item = `CCn1cc(C(=O)O)c(=O)c2cc(F)c(N3CCN(S(=O)(=O)c4ccc(Cl)cc4Cl)CC3)cc21`
inactive

* * *

Let's look at some compounds and their measured TGI.
Test system: SNB-19 CNS
Assay remarks: NCI tumour cell line growth inhibition, 48 h

Before answering, review these 6 worked examples.
{"columns": ["Compound", "TGI"],
 "data": [
  ["CSc1cc(Cl)c(C)cc1S(=O)(=O)NC(=O)NNc1ccc(C)cc1", "> 100 µM"],
  ["O=C(/C=C/c1ccc(OCc2ccccc2)cc1)NCc1ccc(C(=O)NCCc2ccccc2)cc1", "> 100 µM"],
  ["C=CCOCC1C2CCC3(OCCO3)C21 (stereo unspecified)", "> 100 µM"],
  ["CCOC(=O)N1c2ccccc2C(C)=CC(C)C1C (stereo unspecified)", "> 100 µM"],
  ["O=CN1CCN(c2ccc3ccc(=O)[nH]c3n2)CC1", "> 100 µM"],
  ["CC(=O)Oc1ccc2cc(Oc3cc(Cl)c(Cl)cc3Cl)c(=O)oc2c1", "81.2 µM"]
]}

Measured TGI (SNB-19 CNS), entry `Cc1ccc(/C=c2\cc3oc(=O)c4cccc(c4-3)c2=O)cc1` : > 100 µM

Measured TGI (SNB-19 CNS), entry CCCC1C[C@H]2CCCCN2[C@H]2CCCN12 (stereo partly specified) : > 100 µM

Measured TGI (SNB-19 CNS), entry `Cc1ccc(C(=O)N/N=C(\N=Nc2ccc([N+](=O)[O-])cc2)c2ccc(N(CCC#N)CCC#N)cc2C)cc1` : > 100 µM

Measured TGI (SNB-19 CNS), entry `CCn1cc(C(=O)O)c(=O)c2cc(F)c(N3CCN(S(=O)(=O)c4ccc(Cl)cc4Cl)CC3)cc21` : 20.6 µM

Measured TGI (SNB-19 CNS), entry NC(=S)NNCC(=O)CC(O)(C(F)(F)F)C(F)(F)Cl (stereo unspecified) : > 100 µM

* * *

Tested on: MDA-N
Assay remarks: NCI tumour cell line growth inhibition, 48 h
Property: TGI

Before answering, review these 5 worked examples.
{"columns": ["Molecule", "Tested system", "Property", "Reported value"],
 "data": [
  ["Cc1ccc(S(=O)(=O)N/N=C2\\C=CC3(CC2)C(=O)N(I)c2ccccc23)cc1 (configuration not stated)", "MDA-N", "TGI", "> 100 µM"],
  ["O=S(=O)(c1ccccc1)N1CCCC(c2ccccc2)CC1 (configuration not stated)", "MDA-N", "TGI", "> 100 µM"],
  ["CCOC(=O)[C@@]12C[C@](/C=C/OC)(O[Si](C)(C)C)[C@@]13c1cc(OC)c(OC)cc1CCN3C(=O)C2=O", "MDA-N", "TGI", "> 100 µM"],
  ["CC1CC(=O)N(N(C)C)C2(C#N)C(=O)N=C(N)C12C#N (configuration not stated)", "MDA-N", "TGI", "> 100 µM"],
  ["C[N+](C)(CCNc1ccc(NCC[N+](C)(C)Cc2ccc([N+](=O)[O-])cc2)c2c1C(=O)c1c(O)ccc(O)c1C2=O)Cc1ccc([N+](=O)[O-])cc1", "MDA-N", "TGI", "> 50 µM"]
]}

TGI reading for `O=c1cc(-c2ccccc2)oc2ccc(Cl)cc12` : > 61.1 µM

TGI reading for O=C1/C(=C/c2ccc(Cl)cc2)CCC1CNc1ccc(Cl)cc1 (configuration not stated) : 40.4 µM

TGI reading for `O=C1CCC(c2ccccc2)=NN1c1nc2ccccc2s1` : > 100 µM
